tested on: Pseudomonas aeruginosa; test: Potentiation of imipenem-induced antibacterial activity against carbapenem-resistant Pseudomonas aeruginosa 262-101856 clinical isolate assessed as imipenem MIC at 8 uM by checkerboard assay (reference value: 32 ug/ml); type: functional
measurementName: MIC (µg/mL)
The reply should contain only the number, in µg/mL.

smilesStr: Cl.Cl.Cl.Cl.Cl.Cl.NC[C@H]1O[C@H](O[C@H]2[C@H](OCCCCCCCCCCCCN3CCN(c4cc5c(cc4F)c(=O)c(C(=O)O)cn5C4CC4)CC3)[C@@H](O[C@H]3O[C@H](CO)[C@@H](O)[C@H](N)[C@H]3O)[C@H](N)C[C@@H]2N)[C@H](N)C[C@@H]1O
unitOfMeasure: µg/mL
MIC: 4

Turning to the following molecule.
Quick one: MIC of N=C(N)NC[C@H]1O[C@H](O[C@H]2[C@H](OCCCCCCCCCCCCN3CCN(c4cc5c(cc4F)c(=O)c(C(=O)O)cn5C4CC4)CC3)[C@@H](O[C@H]3O[C@H](CO)[C@@H](O)[C@H](NC(=N)N)[C@H]3O)[C@H](NC(=N)N)C[C@@H]2NC(=N)N)[C@H](NC(=N)N)C[C@@H]1O.O=C(O)C(F)(F)F.O=C(O)C(F)(F)F.O=C(O)C(F)(F)F.O=C(O)C(F)(F)F.O=C(O)C(F)(F)F.O=C(O)C(F)(F)F ? 16

====

The following molecules are shown together with reported MIC values.
system: Pseudomonas aeruginosa; experiment: Potentiation of aztreonam-induced antibacterial activity against carbapenem-resistant Pseudomonas aeruginosa 262-101856 clinical isolate assessed as aztreonam MIC at 8 uM by checkerboard assay (reference value: 32 ug/ml); assay type: functional
State the answer as a number, implicitly in µg/mL.

smilesStr: Cl.Cl.Cl.Cl.Cl.NC[C@H]1O[C@H](O[C@H]2[C@H](OCCCCCCCCCCCCN3CCN(c4cc5c(cc4F)c(=O)c(C(=O)O)cn5C4CC4)CC3)[C@@H](O)[C@H](N)C[C@@H]2N)[C@H](N)C[C@@H]1O
result: 16
--
smilesStr: Cl.Cl.Cl.Cl.Cl.Cl.NC[C@H]1O[C@H](O[C@H]2[C@H](OCCCCCCCCCCCCN3CCN(c4cc5c(cc4F)c(=O)c(C(=O)O)cn5C4CC4)CC3)[C@@H](O[C@H]3O[C@H](CO)[C@@H](O)[C@H](N)[C@H]3O)[C@H](N)C[C@@H]2N)[C@H](N)C[C@@H]1O
result: 4
--
smilesStr: NC[C@H]1O[C@H](O[C@H]2[C@H](OCCCCc3cn(CCCCO[C@@H]4[C@@H](O)[C@H](N)C[C@H](N)[C@H]4O[C@H]4O[C@H](CN)[C@@H](O)C[C@H]4N)nn3)[C@@H](O)[C@H](N)C[C@@H]2N)[C@H](N)C[C@@H]1O.O=C(O)C(F)(F)F.O=C(O)C(F)(F)F.O=C(O)C(F)(F)F.O=C(O)C(F)(F)F.O=C(O)C(F)(F)F.O=C(O)C(F)(F)F.O=C(O)C(F)(F)F.O=C(O)C(F)(F)F
result: 16
--
smilesStr: N=C(N)NC[C@H]1O[C@H](O[C@H]2[C@H](OCCCCCCCCCCCCN3CCN(c4cc5c(cc4F)c(=O)c(C(=O)O)cn5C4CC4)CC3)[C@@H](O[C@H]3O[C@H](CO)[C@@H](O)[C@H](NC(=N)N)[C@H]3O)[C@H](NC(=N)N)C[C@@H]2NC(=N)N)[C@H](NC(=N)N)C[C@@H]1O.O=C(O)C(F)(F)F.O=C(O)C(F)(F)F.O=C(O)C(F)(F)F.O=C(O)C(F)(F)F.O=C(O)C(F)(F)F.O=C(O)C(F)(F)F
result: 32

// switching to the query molecule
Name the recorded MIC for NC[C@H]1O[C@H](O[C@H]2[C@H](OCCCCCCCCN3CCCNCCNCCCNCC3)[C@@H](O)[C@H](N)C[C@@H]2N)[C@H](N)C[C@@H]1O.O=C(O)C(F)(F)F.O=C(O)C(F)(F)F.O=C(O)C(F)(F)F.O=C(O)C(F)(F)F.O=C(O)C(F)(F)F.O=C(O)C(F)(F)F.O=C(O)C(F)(F)F.O=C(O)C(F)(F)F . 8

====

Listed here: items and their measured MIC.
test system: Pseudomonas aeruginosa; assay: Antibacterial activity against Pseudomonas aeruginosa PAO750 harboring mexAB-oprM/mexCD-oprJ/mexEF-oprN/mexJK/mexXY/opmH efflux deficient mutant; format: functional
Field: numeric (µg/mL). Do not append units.

smilesStr: NC[C@H]1O[C@H](O[C@H]2[C@H](OCCCCc3cn(CCCCO[C@@H]4[C@@H](O)[C@H](N)C[C@H](N)[C@H]4O[C@H]4O[C@H](CN)[C@@H](O)C[C@H]4N)nn3)[C@@H](O)[C@H](N)C[C@@H]2N)[C@H](N)C[C@@H]1O.O=C(O)C(F)(F)F.O=C(O)C(F)(F)F.O=C(O)C(F)(F)F.O=C(O)C(F)(F)F.O=C(O)C(F)(F)F.O=C(O)C(F)(F)F.O=C(O)C(F)(F)F.O=C(O)C(F)(F)F
MIC (µg/mL): 128
//
smilesStr: NC[C@H]1O[C@H](O[C@H]2[C@H](O)[C@@H](O[C@H]3O[C@H](CO)[C@@H](O)[C@H](N)[C@H]3O)[C@H](N)C[C@@H]2N)[C@H](N)C[C@@H]1O
MIC (µg/mL): 1

May I ask what MIC has been recorded for N=C(N)NC[C@H]1O[C@H](O[C@H]2[C@H](OCCCCCCCCCCCCN3CCN(c4cc5c(cc4F)c(=O)c(C(=O)O)cn5C4CC4)CC3)[C@@H](O[C@H]3O[C@H](CO)[C@@H](O)[C@H](NC(=N)N)[C@H]3O)[C@H](NC(=N)N)C[C@@H]2NC(=N)N)[C@H](NC(=N)N)C[C@@H]1O.O=C(O)C(F)(F)F.O=C(O)C(F)(F)F.O=C(O)C(F)(F)F.O=C(O)C(F)(F)F.O=C(O)C(F)(F)F.O=C(O)C(F)(F)F ? 16

Reported MIC for O=C(O)c1cn(C2CC2)c2cc(N3CCNCC3)c(F)cc2c1=O : what is it? 0.0078

====

test system: Pseudomonas aeruginosa; assay: Potentiation of imipenem-induced antibacterial activity against carbapenem and colistin-resistant Pseudomonas aeruginosa 91433 clinical isolate assessed as imipenem MIC at 8 uM by checkerboard assay (reference value: 8 ug/ml); assay type: functional
measurementName: MIC
Please append the unit to your numeric answer.

Some compounds with recorded MIC:
smilesStr: N=C(N)NC[C@H]1O[C@H](O[C@H]2[C@H](OCCCCCCCCCCCCN3CCN(c4cc5c(cc4F)c(=O)c(C(=O)O)cn5C4CC4)CC3)[C@@H](O[C@H]3O[C@H](CO)[C@@H](O)[C@H](NC(=N)N)[C@H]3O)[C@H](NC(=N)N)C[C@@H]2NC(=N)N)[C@H](NC(=N)N)C[C@@H]1O.O=C(O)C(F)(F)F.O=C(O)C(F)(F)F.O=C(O)C(F)(F)F.O=C(O)C(F)(F)F.O=C(O)C(F)(F)F.O=C(O)C(F)(F)F
targetOfAssay: Pseudomonas aeruginosa
measurementName: MIC
result: 8 mg/L
//
smilesStr: Cl.Cl.Cl.Cl.Cl.NC[C@H]1O[C@H](O[C@H]2[C@H](OCCCCCCCCCCCCN3CCN(c4cc5c(cc4F)c(=O)c(C(=O)O)cn5C4CC4)CC3)[C@@H](O)[C@H](N)C[C@@H]2N)[C@H](N)C[C@@H]1O
targetOfAssay: Pseudomonas aeruginosa
measurementName: MIC
result: 8 mg/L

Alright, here's another compound for you.
Hi! What's the reported MIC for NC[C@H]1O[C@H](O[C@H]2[C@H](OCCCCCCCCN3CCCNCCNCCCNCC3)[C@@H](O[C@H]3O[C@H](CO)[C@@H](O)[C@H](N)[C@H]3O)[C@H](N)C[C@@H]2N)[C@H](N)C[C@@H]1O.O=C(O)C(F)(F)F.O=C(O)C(F)(F)F.O=C(O)C(F)(F)F.O=C(O)C(F)(F)F.O=C(O)C(F)(F)F.O=C(O)C(F)(F)F.O=C(O)C(F)(F)F.O=C(O)C(F)(F)F.O=C(O)C(F)(F)F on Pseudomonas aeruginosa? 8 mg/L

====

The compounds listed here are annotated with their MIC.
tested on: Pseudomonas aeruginosa; experiment: Potentiation of imipenem-induced antibacterial activity against carbapenem-resistant Pseudomonas aeruginosa 260-97103 clinical isolate assessed as imipenem MIC at 8 uM by checkerboard assay (reference value: 16 ug/ml); format: functional
Form entry: value (µg/mL) — number only.

smilesStr: NC[C@H]1O[C@H](O[C@H]2[C@H](OCCCCCCCCN3CCCNCCNCCCNCC3)[C@@H](O[C@H]3O[C@H](CO)[C@@H](O)[C@H](N)[C@H]3O)[C@H](N)C[C@@H]2N)[C@H](N)C[C@@H]1O.O=C(O)C(F)(F)F.O=C(O)C(F)(F)F.O=C(O)C(F)(F)F.O=C(O)C(F)(F)F.O=C(O)C(F)(F)F.O=C(O)C(F)(F)F.O=C(O)C(F)(F)F.O=C(O)C(F)(F)F.O=C(O)C(F)(F)F
measurementName: MIC
result: 8
//
smilesStr: N=C(N)NC[C@H]1O[C@H](O[C@H]2[C@H](OCCCCCCCCCCCCN3CCN(c4cc5c(cc4F)c(=O)c(C(=O)O)cn5C4CC4)CC3)[C@@H](O[C@H]3O[C@H](CO)[C@@H](O)[C@H](NC(=N)N)[C@H]3O)[C@H](NC(=N)N)C[C@@H]2NC(=N)N)[C@H](NC(=N)N)C[C@@H]1O.O=C(O)C(F)(F)F.O=C(O)C(F)(F)F.O=C(O)C(F)(F)F.O=C(O)C(F)(F)F.O=C(O)C(F)(F)F.O=C(O)C(F)(F)F
measurementName: MIC
result: 8
//
smilesStr: Cl.Cl.Cl.Cl.Cl.NC[C@H]1O[C@H](O[C@H]2[C@H](OCCCCCCCCCCCCN3CCN(c4cc5c(cc4F)c(=O)c(C(=O)O)cn5C4CC4)CC3)[C@@H](O)[C@H](N)C[C@@H]2N)[C@H](N)C[C@@H]1O
measurementName: MIC
result: 2
//
smilesStr: NC[C@H]1O[C@H](O[C@H]2[C@H](OCCCCCCCCN3CCCNCCNCCCNCC3)[C@@H](O)[C@H](N)C[C@@H]2N)[C@H](N)C[C@@H]1O.O=C(O)C(F)(F)F.O=C(O)C(F)(F)F.O=C(O)C(F)(F)F.O=C(O)C(F)(F)F.O=C(O)C(F)(F)F.O=C(O)C(F)(F)F.O=C(O)C(F)(F)F.O=C(O)C(F)(F)F
measurementName: MIC
result: 8
//
smilesStr: Cl.Cl.Cl.Cl.Cl.Cl.NC[C@H]1O[C@H](O[C@H]2[C@H](OCCCCCCCCCCCCN3CCN(c4cc5c(cc4F)c(=O)c(C(=O)O)cn5C4CC4)CC3)[C@@H](O[C@H]3O[C@H](CO)[C@@H](O)[C@H](N)[C@H]3O)[C@H](N)C[C@@H]2N)[C@H](N)C[C@@H]1O
measurementName: MIC
result: 2

Next compound, please.
Request: MIC, test system Pseudomonas aeruginosa, entry NC[C@H]1O[C@H](O[C@H]2[C@H](OCCCCc3cn(CCCCO[C@@H]4[C@@H](O)[C@H](N)C[C@H](N)[C@H]4O[C@H]4O[C@H](CN)[C@@H](O)C[C@H]4N)nn3)[C@@H](O)[C@H](N)C[C@@H]2N)[C@H](N)C[C@@H]1O.O=C(O)C(F)(F)F.O=C(O)C(F)(F)F.O=C(O)C(F)(F)F.O=C(O)C(F)(F)F.O=C(O)C(F)(F)F.O=C(O)C(F)(F)F.O=C(O)C(F)(F)F.O=C(O)C(F)(F)F 16
